# Target Or System: KpnIroN (Klebsiella pneumoniae, UniProt A0ACD7U953, T234C)
# Test Name: Fluorescence quenching binding to KpnIroN-FM sensor
# Assay Conditions: read-out: Affinity (KD) of sensor KpnIroN; ferric complexes; Cys residue T210C, FM-labeled; NB = no binding
Metric Name: Kd
# number then unit; no other words

Query (molecule): `CC(C)(O/N=C(\C(=O)N[C@@H]1C(=O)N2C(C(=O)[O-])=C(C[N+]3(CCNC(=O)c4ccc([O-])c([O-])c4Cl)CCCC3)CS[C@H]12)c1csc(N)n1)C(=O)[O-].[Fe+3]` ; field requested: Kd
580 nM

###

# Target Or System: EcoCir (Escherichia coli, UniProt P17315, G512C)
# Sequence (P17315 26-663 G512C): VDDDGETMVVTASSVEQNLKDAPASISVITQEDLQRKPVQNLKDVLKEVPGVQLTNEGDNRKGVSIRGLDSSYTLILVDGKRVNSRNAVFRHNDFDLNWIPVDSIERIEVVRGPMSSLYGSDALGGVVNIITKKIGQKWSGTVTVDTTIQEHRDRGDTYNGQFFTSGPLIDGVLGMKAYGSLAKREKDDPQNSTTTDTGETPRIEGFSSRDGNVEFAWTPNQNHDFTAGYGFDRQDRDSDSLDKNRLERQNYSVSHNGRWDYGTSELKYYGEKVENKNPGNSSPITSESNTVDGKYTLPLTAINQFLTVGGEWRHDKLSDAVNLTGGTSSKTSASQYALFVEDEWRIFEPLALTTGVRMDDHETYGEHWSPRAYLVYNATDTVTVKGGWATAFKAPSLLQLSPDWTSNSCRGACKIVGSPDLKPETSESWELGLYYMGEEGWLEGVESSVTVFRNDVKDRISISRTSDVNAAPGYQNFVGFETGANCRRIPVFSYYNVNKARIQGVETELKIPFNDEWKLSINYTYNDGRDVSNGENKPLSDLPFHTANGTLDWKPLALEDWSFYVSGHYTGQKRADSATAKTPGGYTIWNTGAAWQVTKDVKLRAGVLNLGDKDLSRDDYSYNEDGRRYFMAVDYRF
# Test Name: biochemical
Metric Name: Kd (nM)
State just the number; it will be interpreted in nM.

Query (compound): `CC(C)(O/N=C(\C(=O)N[C@@H]1C(=O)N2C(C(=O)[O-])=C(C[N+]3(CCNC(=O)c4ccc([O-])c([O-])c4Cl)CCCC3)CS[C@H]12)c1csc(N)n1)C(=O)[O-].[Fe+3]` ; field requested: Kd
60

###

# Target Or System: AbaBauA (Acinetobacter baumannii, UniProt Q76HJ9, S407C)
# Test Name: Fluorescence quenching binding to AbaBauA-FM sensor
# Description: Fluorescence modifications. […] After electrophoresis, we first visualized the fluorescence labeling on a Typhoon 8600 Biomolecular Scanner (GE/Amersham), and then stained the gels with Coomassie blue R (153). Fluorescence spectroscopic binding determinations. We observed fluorophore-labeled cells in an SLM AMINCO 8100 fluorescence spectrometer, upgraded with an OLIS operating system and software (OLIS SpectralWorks, OLIS Inc., Bogart, GA), to control its shutters, polarizers and data collection. […]
Metric Name: Kd (µM)
State just the number; it will be interpreted in µM.

Query (compound): CC(C)(O/N=C(\C(=O)N[C@@H]1C(=O)N2C(C(=O)[O-])=C(C[N+]3(CCNC(=O)c4ccc([O-])c([O-])c4Cl)CCCC3)CS[C@H]12)c1csc(N)n1)C(=O)[O-].[Fe+3] [FeFDC] ; field requested: Kd
181

###

# Target Or System: EcoFiu (Escherichia coli, UniProt P75780, A694C)
# Sequence (P75780 32-760 A694C): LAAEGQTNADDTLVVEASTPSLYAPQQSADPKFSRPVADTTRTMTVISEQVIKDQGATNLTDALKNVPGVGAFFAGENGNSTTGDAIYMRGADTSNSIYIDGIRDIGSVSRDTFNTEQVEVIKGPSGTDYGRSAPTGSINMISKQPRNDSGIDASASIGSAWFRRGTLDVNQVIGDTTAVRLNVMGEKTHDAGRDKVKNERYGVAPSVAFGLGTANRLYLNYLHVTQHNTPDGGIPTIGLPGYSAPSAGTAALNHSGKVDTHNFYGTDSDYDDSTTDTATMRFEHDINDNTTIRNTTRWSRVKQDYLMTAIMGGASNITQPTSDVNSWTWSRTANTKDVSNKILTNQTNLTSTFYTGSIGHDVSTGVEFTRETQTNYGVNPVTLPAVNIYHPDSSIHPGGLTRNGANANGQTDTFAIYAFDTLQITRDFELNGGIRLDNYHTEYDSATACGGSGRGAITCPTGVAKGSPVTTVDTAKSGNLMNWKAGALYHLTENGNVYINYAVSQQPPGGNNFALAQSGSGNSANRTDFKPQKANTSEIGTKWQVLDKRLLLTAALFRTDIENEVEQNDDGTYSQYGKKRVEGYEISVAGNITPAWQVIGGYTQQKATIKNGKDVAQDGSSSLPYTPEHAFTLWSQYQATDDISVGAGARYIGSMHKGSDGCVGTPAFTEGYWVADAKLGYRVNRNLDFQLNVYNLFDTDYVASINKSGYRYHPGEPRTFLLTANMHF
# Test Name: biochemical
Metric Name: Kd (nM)
State just the number; it will be interpreted in nM.

Query (compound): `CC(C)(O/N=C(\C(=O)N[C@@H]1C(=O)N2C(C(=O)[O-])=C(C[N+]3(CCNC(=O)c4ccc([O-])c([O-])c4Cl)CCCC3)CS[C@H]12)c1csc(N)n1)C(=O)[O-].[Fe+3]` ; field requested: Kd
540

###

# Target Or System: EcoFepA (Escherichia coli, UniProt P05825, A720C)
# Construct: expressed in transfected cells; host or cells: E. coli OKN3/OKN13/OKN359/OKN1359 carrying pITS23 (fepA under its own promoter)
# Sequence (P05825 23-746 A720C): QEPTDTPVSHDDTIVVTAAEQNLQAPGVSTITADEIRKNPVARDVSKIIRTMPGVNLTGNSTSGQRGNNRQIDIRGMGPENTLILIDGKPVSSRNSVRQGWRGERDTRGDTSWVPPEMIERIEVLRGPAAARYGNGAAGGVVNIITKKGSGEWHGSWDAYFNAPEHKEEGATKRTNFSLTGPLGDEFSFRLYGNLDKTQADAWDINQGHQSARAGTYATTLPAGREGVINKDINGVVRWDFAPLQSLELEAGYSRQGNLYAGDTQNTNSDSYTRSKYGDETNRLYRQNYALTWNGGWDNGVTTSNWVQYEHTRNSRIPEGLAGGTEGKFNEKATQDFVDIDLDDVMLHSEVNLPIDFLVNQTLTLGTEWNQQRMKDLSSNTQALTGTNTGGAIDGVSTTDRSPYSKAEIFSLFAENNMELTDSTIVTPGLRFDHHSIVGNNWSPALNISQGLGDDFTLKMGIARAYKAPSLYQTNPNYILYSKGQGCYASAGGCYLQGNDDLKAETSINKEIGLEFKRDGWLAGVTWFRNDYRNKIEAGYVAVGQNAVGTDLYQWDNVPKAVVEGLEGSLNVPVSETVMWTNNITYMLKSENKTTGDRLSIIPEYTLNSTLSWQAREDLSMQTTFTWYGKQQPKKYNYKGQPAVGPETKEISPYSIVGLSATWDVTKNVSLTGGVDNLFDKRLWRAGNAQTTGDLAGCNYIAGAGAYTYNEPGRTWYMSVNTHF
# Test Name: biochemical
# Format: binding
# Assay Conditions: Affinity (KD) of sensor EcoFepA, apo siderophore, apo (parenthetic value); A698C
# Text: Fluorescence modifications. […] After electrophoresis, we first visualized the fluorescence labeling on a Typhoon 8600 Biomolecular Scanner (GE/Amersham), and then stained the gels with Coomassie blue R (153). Fluorescence spectroscopic binding determinations. We observed fluorophore-labeled cells in an SLM AMINCO 8100 fluorescence spectrometer, upgraded with an OLIS operating system and software (OLIS SpectralWorks, OLIS Inc., Bogart, GA), to control its shutters, polarizers and data collection. […]
Metric Name: pKd
In plain terms, pKd is the concentration in mol/L turned into minus its base-10 logarithm.

Query (compound): O=C(N[C@H]1COC(=O)[C@@H](NC(=O)c2cccc(O)c2O)COC(=O)[C@@H](NC(=O)c2cccc(O)c2O)COC1=O)c1cccc(O)c1O [Ent, enterobactin] ; field requested: pKd
7.52

###

# Target Or System: EcoFepA (Escherichia coli, UniProt P05825, A720C)
# Construct: expressed in transfected cells; host or cells: E. coli OKN3/OKN13/OKN359/OKN1359 carrying pITS23 (fepA under its own promoter)
# Test Name: biochemical
# Type: binding
# Assay Conditions: KD, EcoFepA / EcoFepA-FM
Metric Name: pKd
In plain terms, pKd is the concentration in mol/L turned into minus its base-10 logarithm.

Query (compound): O=C(N[C@H]1COC(=O)[C@@H](NC(=O)c2cccc(O)c2O)COC(=O)[C@@H](NC(=O)c2cccc(O)c2O)COC1=O)c1cccc(O)c1O [Ent, enterobactin] ; field requested: pKd
7.37

###

# Target Or System: EcoFepB (Escherichia coli, UniProt P0AEL6, T297C)
# Construct: adds a 6H-tag at either the N- or C-termini of the mature proteins; 6-His (N); purified on Talon Superflow
# Sequence (P0AEL6 27-318 T297C): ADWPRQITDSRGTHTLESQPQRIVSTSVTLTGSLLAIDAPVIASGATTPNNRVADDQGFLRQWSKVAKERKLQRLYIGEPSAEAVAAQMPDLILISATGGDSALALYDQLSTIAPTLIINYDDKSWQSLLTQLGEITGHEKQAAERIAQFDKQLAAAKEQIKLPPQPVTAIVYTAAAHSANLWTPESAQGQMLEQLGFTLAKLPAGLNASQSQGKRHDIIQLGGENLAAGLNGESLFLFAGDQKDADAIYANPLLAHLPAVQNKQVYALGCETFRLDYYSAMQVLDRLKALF
# Test Name: biochemical
# Description: Cys Mutant protein expression and fluorescent labeling. The vector for LGP production, pITS23, carries wild-type EcofepA under control of its native, Fur-regulated promoter. […] We evaluated the expression and labeling of each of the cloned LGP by growing the appropriate E. coli host strain (OKN3, OKN359, OKN13 or OKN1359), harboring the plasmid constructs of interest, in iron-deficient MOPS medium to late log phase (A600 nm=2.5-3.5). […] Fluorescence spectroscopic binding determinations. […]
Metric Name: Kd (µM)
State just the number; it will be interpreted in µM.

Find the measured Kd: item `O=C(N[C@H]1COC(=O)[C@@H](NC(=O)c2cccc(O)c2O)COC(=O)[C@@H](NC(=O)c2cccc(O)c2O)COC1=O)c1cccc(O)c1O` , target or system EcoFepB (Escherichia coli, UniProt P0AEL6, T297C).
6

###

# Target Or System: AbaPiuA (Acinetobacter baumannii, UniProt D0CAH3, S724C)
# Test Name: Fluorescence quenching binding to AbaPiuA-FM sensor
# Excerpt: Fluorescence modifications. […] After electrophoresis, we first visualized the fluorescence labeling on a Typhoon 8600 Biomolecular Scanner (GE/Amersham), and then stained the gels with Coomassie blue R (153). Fluorescence spectroscopic binding determinations. We observed fluorophore-labeled cells in an SLM AMINCO 8100 fluorescence spectrometer, upgraded with an OLIS operating system and software (OLIS SpectralWorks, OLIS Inc., Bogart, GA), to control its shutters, polarizers and data collection. […]
Metric Name: Kd
# number then unit; no other words

Query (molecule): CC(C)(O/N=C(\C(=O)N[C@@H]1C(=O)N2C(C(=O)[O-])=C(C[N+]3(CCNC(=O)c4ccc([O-])c([O-])c4Cl)CCCC3)CS[C@H]12)c1csc(N)n1)C(=O)[O-].[Fe+3] [FeFDC] ; field requested: Kd
57 µM

###

# Target Or System: KpnFyuA
# Test Name: Fluorescence quenching binding to KpnFyuA-FM sensor
# Parameters: species or system Klebsiella pneumoniae
# Assay Conditions: ferric complexes; Cys residue S631C, FM-labeled; NB = no binding; read-out: Affinity (KD) of sensor KpnFyuA
Metric Name: Kd (µM)
State just the number; it will be interpreted in µM.

Find the measured Kd: item `CC(=O)N(O)CCCCCNC(=O)CCC(=O)N(O)CCCCCNC(=O)CCC(=O)N(O)CCCCCN.[Fe+3]` , target or system KpnFyuA.
277

###

# Target Or System: PaeFepA (Pseudomonas aeruginosa, UniProt Q05098, S296C)
# Test Name: Fluorescence quenching binding to PaeFepA-FM sensor
Metric Name: pKd
In plain terms, pKd is the concentration in mol/L turned into minus its base-10 logarithm.

Find the measured pKd: item `O=C(N[C@H]1COC(=O)[C@@H](NC(=O)c2cccc(O)c2O)COC(=O)[C@@H](NC(=O)c2cccc(O)c2O)COC1=O)c1cccc(O)c1O` , target or system PaeFepA (Pseudomonas aeruginosa, UniProt Q05098, S296C).
5.77

###

# Target Or System: KpnIroN (Klebsiella pneumoniae, UniProt A0ACD7U953, T234C)
# Test Name: Fluorescence quenching binding to KpnIroN-FM sensor
# Assay Conditions: read-out: Affinity (KD) of sensor KpnIroN, apo siderophore; apo (parenthetic value); T210C
Metric Name: pKd
In plain terms, pKd is the concentration in mol/L turned into minus its base-10 logarithm.

Find the measured pKd: item O=C(N[C@H]1COC(=O)[C@@H](NC(=O)c2cccc(O)c2O)COC(=O)[C@@H](NC(=O)c2cccc(O)c2O)COC1=O)c1cccc(O)c1O [Ent, enterobactin] , target or system KpnIroN (Klebsiella pneumoniae, UniProt A0ACD7U953, T234C).
7.40

###

# Target Or System: AbaBauA (Acinetobacter baumannii, UniProt Q76HJ9, S407C)
# Test Name: Fluorescence quenching binding to AbaBauA-FM sensor
# Assay Conditions: read-out: Affinity (KD) of sensor AbaBauA; ferric complexes; Cys residue S385C, FM-labeled; NB = no binding
# Text: Fluorescence modifications. […] After electrophoresis, we first visualized the fluorescence labeling on a Typhoon 8600 Biomolecular Scanner (GE/Amersham), and then stained the gels with Coomassie blue R (153). Fluorescence spectroscopic binding determinations. We observed fluorophore-labeled cells in an SLM AMINCO 8100 fluorescence spectrometer, upgraded with an OLIS operating system and software (OLIS SpectralWorks, OLIS Inc., Bogart, GA), to control its shutters, polarizers and data collection. […]
Metric Name: pKd
In plain terms, pKd is the concentration in mol/L turned into minus its base-10 logarithm.

Find the measured pKd: item O=C([C@@H]1CSC(c2cccc(O)c2O)=N1)N(O)CCc1c[nH]cn1.[Fe+3] [FeAgn] , target or system AbaBauA (Acinetobacter baumannii, UniProt Q76HJ9, S407C).
5.96
